Where these numbers come from: the NIST ThermoML archive (doi:10.1021/je901050v)

Items are presented alongside their recorded refractive index.
Assay: refractive index (Na D-line) (dimensionless)
Details: 318.15 K; 101.33 kPa; Liquid; Standard Abbe refractometry
reported metric: refractive index

[[record]]
compound = "CCCCCCCCn1cc[n+](CCC#N)c1.[Br-] [3-(2-cyanoethyl)-1-octyl-1H-imidazolium bromide]"
reported_metric = "refractive index"
readout_number = 1.51024

[[record]]
compound = "CCCCCCCCCCn1cc[n+](CCC#N)c1.[Br-] [3-(2-cyanoethyl)-1-decyl-1H-imidazolium bromide]"
reported_metric = "refractive index"
readout_number = 1.50606

[[record]]
compound = "CCCCn1cc[n+](CCC#N)c1.[Br-] [1-butyl-3-(2-cyanoethyl)-1H-imidazolium bromide]"
reported_metric = "refractive index"
readout_number = 1.54111

[[record]]
compound = "CCCCCCn1cc[n+](CCC#N)c1.[Br-] [3-(2-cyanoethyl)-1-hexyl-1H-imidazolium bromide]"
reported_metric = "refractive index"
readout_number = 1.52479


###

Settings: 353.15 K; 101.33 kPa; Liquid; Concentric cylinders viscometry
reported metric: viscosity (mPa·s)

[[record]]
compound = "CCCCCCCCCCn1cc[n+](CCC#N)c1.[Br-] [3-(2-cyanoethyl)-1-decyl-1H-imidazolium bromide]"
reported_metric = "viscosity"
readout_number = 737

[[record]]
compound = "CCCCCCCCn1cc[n+](CCC#N)c1.[Br-] [3-(2-cyanoethyl)-1-octyl-1H-imidazolium bromide]"
reported_metric = "viscosity"
readout_number = 530.5

[[record]]
compound = "CCCCn1cc[n+](CCC#N)c1.[Br-] [1-butyl-3-(2-cyanoethyl)-1H-imidazolium bromide]"
reported_metric = "viscosity"
readout_number = 298.1

[[record]]
compound = "CCCCCCn1cc[n+](CCC#N)c1.[Br-] [3-(2-cyanoethyl)-1-hexyl-1H-imidazolium bromide]"
reported_metric = "viscosity"
readout_number = 359.3


###

Settings: 348.15 K; 101.33 kPa; Liquid; Concentric cylinders viscometry
reported metric: viscosity (mPa·s)

[[record]]
molecule = "CCCCn1cc[n+](CCC#N)c1.[Br-] [1-butyl-3-(2-cyanoethyl)-1H-imidazolium bromide]"
reported_metric = "viscosity"
result_units = "mPa·s"
readout_number = 390.7

[[record]]
molecule = "CCCCCCCCn1cc[n+](CCC#N)c1.[Br-] [3-(2-cyanoethyl)-1-octyl-1H-imidazolium bromide]"
reported_metric = "viscosity"
result_units = "mPa·s"
readout_number = 727.9

[[record]]
molecule = "CCCCCCn1cc[n+](CCC#N)c1.[Br-] [3-(2-cyanoethyl)-1-hexyl-1H-imidazolium bromide]"
reported_metric = "viscosity"
result_units = "mPa·s"
readout_number = 465.7

[[record]]
molecule = "CCCCCCCCCCn1cc[n+](CCC#N)c1.[Br-] [3-(2-cyanoethyl)-1-decyl-1H-imidazolium bromide]"
reported_metric = "viscosity"
result_units = "mPa·s"
readout_number = 1014.6


###

Items are presented alongside their recorded mass density.
Conditions: 348.15 K; 101.33 kPa; Liquid; Vibrating tube method
reported metric: mass density (kg/m3)

[[record]]
compound = "CCCCCCn1cc[n+](CCC#N)c1.[Br-] [3-(2-cyanoethyl)-1-hexyl-1H-imidazolium bromide]"
readout_number = 1195.9

[[record]]
compound = "CCCCCCCCn1cc[n+](CCC#N)c1.[Br-] [3-(2-cyanoethyl)-1-octyl-1H-imidazolium bromide]"
readout_number = 1142.8

[[record]]
compound = "CCCCn1cc[n+](CCC#N)c1.[Br-] [1-butyl-3-(2-cyanoethyl)-1H-imidazolium bromide]"
readout_number = 1271.4

[[record]]
compound = "CCCCCCCCCCn1cc[n+](CCC#N)c1.[Br-] [3-(2-cyanoethyl)-1-decyl-1H-imidazolium bromide]"
readout_number = 1105.2

